# system_under_test: UniProt P33261
# Sequence (P33261 whole entry): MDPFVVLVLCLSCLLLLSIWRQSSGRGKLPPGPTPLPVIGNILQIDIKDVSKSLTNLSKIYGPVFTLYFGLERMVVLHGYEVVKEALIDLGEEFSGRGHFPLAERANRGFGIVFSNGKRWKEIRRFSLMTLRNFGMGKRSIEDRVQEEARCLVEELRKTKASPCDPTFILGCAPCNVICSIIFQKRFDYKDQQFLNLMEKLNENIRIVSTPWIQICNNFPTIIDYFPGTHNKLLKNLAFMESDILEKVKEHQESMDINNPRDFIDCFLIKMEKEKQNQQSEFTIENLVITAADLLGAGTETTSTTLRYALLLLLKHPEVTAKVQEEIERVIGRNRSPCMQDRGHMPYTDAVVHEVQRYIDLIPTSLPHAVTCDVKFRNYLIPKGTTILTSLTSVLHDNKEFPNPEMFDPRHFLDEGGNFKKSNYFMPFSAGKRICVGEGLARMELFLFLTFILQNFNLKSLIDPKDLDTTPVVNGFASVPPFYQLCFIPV
metric_name: IC50

{"smiles_repr": "CS(=O)(=O)N1CCC(n2c(CN3C(=O)C4(CC4)c4ccc(F)cc43)nc3cc(Cl)ccc32)CC1", "reading": "> 25 µM"}

----------
# System: MDR1
# test_details: in vitro
# Assay type: in vitro ADME
# experimental_context: dog, MDCK-MDR1

{"molecule": "CS(=O)(=O)C1CCN(CCCn2c(CN3C(=O)C4(CC4)c4ccc(F)cc43)nc3cc(Cl)ccc32)C1 (stereo not shown)", "Papp B→A at 60 min, 10 μM [nm/s]": 680}
{"molecule": "CS(=O)(=O)N1CCC(n2c(CN3C(=O)C4(CC4)c4ccc(F)cc43)nc3cc(Cl)ccc32)CC1", "Papp B→A at 60 min, 10 μM [nm/s]": 355}
{"molecule": "CS(=O)(=O)C1CCN(CCCn2c(CN3C(=O)C4(CC4)c4ccc(F)cc43)nc3cc(Cl)ccc32)CC1", "Papp B→A at 60 min, 10 μM [nm/s]": 613}
{"molecule": "CCS(=O)(=O)N1CCC(n2c(CN3C(=O)C4(CC4)c4ccc(F)cc43)nc3cc(Cl)ccc32)CC1", "Papp B→A at 60 min, 10 μM [nm/s]": 228}

----------
# system_under_test: CYP2C9 (Homo sapiens, UniProt P11712)
# Sequence (P11712 whole entry): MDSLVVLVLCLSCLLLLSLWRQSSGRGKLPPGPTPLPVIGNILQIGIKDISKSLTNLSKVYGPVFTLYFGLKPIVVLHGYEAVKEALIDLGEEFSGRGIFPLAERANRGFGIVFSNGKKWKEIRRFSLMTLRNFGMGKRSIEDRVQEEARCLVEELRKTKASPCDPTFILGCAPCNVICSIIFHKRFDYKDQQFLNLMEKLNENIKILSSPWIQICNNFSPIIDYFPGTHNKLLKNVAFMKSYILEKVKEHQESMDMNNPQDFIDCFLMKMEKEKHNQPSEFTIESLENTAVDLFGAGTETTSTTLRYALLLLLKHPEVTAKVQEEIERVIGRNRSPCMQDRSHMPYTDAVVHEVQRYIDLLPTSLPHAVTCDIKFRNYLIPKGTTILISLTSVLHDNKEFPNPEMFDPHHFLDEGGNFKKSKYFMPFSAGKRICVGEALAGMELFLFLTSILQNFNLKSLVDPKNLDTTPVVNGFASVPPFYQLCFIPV
pIC50: −log10 of the molar value.
metric_name: pIC50

{"smiles_repr": "CS(=O)(=O)N1CCC(n2c(CN3C(=O)C4(CC4)c4ccc(F)cc43)nc3cc(Cl)ccc32)CC1", "system_under_test": "CYP2C9 (Homo sapiens, UniProt P11712)", "metric_name": "pIC50", "reading": "< 4.60"}

----------
# test_details: In vivo pharmacokinetics in the dog
# Design: species or system Beagle dogs
# experimental_context: Beagle, plasma, 3 mg/kg PO
metric_name: Tmax (min)

{"smiles_repr": "CS(=O)(=O)N1CCC(n2c(CN3C(=O)C4(CC4)c4ccc(F)cc43)nc3cc(Cl)ccc32)CC1", "metric_name": "Tmax", "endpoint_unit": "min", "reading": 40.2}

----------
# system_under_test: RSV fusion (pCDNA3.1_A2_F in HEK 293T cells) (Human respiratory syncytial virus A, UniProt P03420)
# Sequence (P03420 26-109): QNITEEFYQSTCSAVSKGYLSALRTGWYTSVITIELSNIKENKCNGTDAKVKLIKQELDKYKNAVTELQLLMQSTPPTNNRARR
# Sequence (P03420 137-574): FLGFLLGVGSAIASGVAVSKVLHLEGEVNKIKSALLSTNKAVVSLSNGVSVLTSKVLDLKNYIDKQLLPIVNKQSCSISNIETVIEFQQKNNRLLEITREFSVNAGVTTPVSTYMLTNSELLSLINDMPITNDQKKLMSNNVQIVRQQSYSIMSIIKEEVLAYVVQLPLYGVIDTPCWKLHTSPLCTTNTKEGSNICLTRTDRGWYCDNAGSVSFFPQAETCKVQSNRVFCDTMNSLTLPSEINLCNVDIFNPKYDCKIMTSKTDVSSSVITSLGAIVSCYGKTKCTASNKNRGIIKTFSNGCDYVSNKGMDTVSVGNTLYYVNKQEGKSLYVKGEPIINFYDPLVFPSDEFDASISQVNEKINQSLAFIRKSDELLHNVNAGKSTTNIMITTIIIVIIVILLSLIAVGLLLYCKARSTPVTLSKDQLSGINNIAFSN
# test_details: RSV fusion assay
Threshold 10 nM: IC50 strictly smaller gives true, otherwise false.

{"compound": "CS(=O)(=O)N1CCN(CCn2c(CN3C(=O)C4(CC4)c4ccc(F)cc43)nc3cc(Cl)ccc32)CC1", "assigned_label": "false"}
{"compound": "CS(=O)(=O)CCNCCCn1c(CN2C(=O)C3(CC3)c3ccc(F)cc32)nc2cc(Cl)ccc21", "assigned_label": "false"}
{"compound": "O=C1N(Cc2nc3cc(Cl)ccc3n2CCCN2CCS(=O)(=O)CC2)c2cc(F)ccc2C12CC2", "assigned_label": "false"}
{"compound": "CCS(=O)(=O)CCNCCCn1c(CN2C(=O)C3(CC3)c3ccc(F)cc32)nc2cc(Cl)ccc21", "assigned_label": "false"}
{"compound": "CS(=O)(=O)C1CCN(CCCn2c(CN3C(=O)C4(CC4)c4ccc(F)cc43)nc3cc(Cl)ccc32)C1 (stereo not shown)", "assigned_label": "false"}
{"compound": "CCS(=O)(=O)N1CCC(n2c(CN3C(=O)C4(CC4)c4ccc(F)cc43)nc3cc(Cl)ccc32)CC1", "assigned_label": "true"}

Origin of values: patent US11078189B2
